# assay explanation: NCI Yeast Anticancer Drug Screen. Data for the rad14 strain (AID 159);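 further: 0% = growth of vehicle-treated control cultures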
# condition parameters: S. cerevisiae rad14 strain growth inhibition; at 100.0 µM; hits give high values
# Procedure: Growth inhibition of yeast strains with defined genetic alterations is measured as a screen for potential anti-cancer activity. Selected strains with alterations in DNA damage repair or cell cycle control were exposed to compounds and growth inhibition was measured relative to vehicle treated controls. The strain used in this assay is rad14
The panel holds about 79,000 compounds, 15% with a hit somewhere; the sample as a whole holds those more often.
measure: growth inhibition (%)

INSERT INTO results (compound, readout_units, measured) VALUES
  ('Cc1ccc(Sc2ccccc2N)cc1', '%', 99),
  ('O=C1c2ccccc2C(=O)N1CCCC(=O)n1cc(F)c(=O)[nH]c1=O', '%', 40),
  ('CC1=C(SCc2ccccc2)C(=O)c2ccccc2C1=O', '%', 92),
  ('O=C1Nc2ccccc2/C1=C/c1ccccc1', '%', 73),
  ('O=[N+]([O-])c1cccc2nc3ccccc3c(NCCC[N+]3([O-])CCCCC3)c12', '%', 98),
  ('CCCCCCSc1ncnc2[nH]ncc12', '%', 5),
  ('COc1oc(C(=O)NC2CCCCC2)c(-c2ccc(Cl)cc2)c1S(=O)(=O)c1ccccc1', '%', 74),
  ('NC(=O)c1c([N+](=O)[O-])cc(C(F)(F)F)cc1[N+](=O)[O-]', '%', 1),
  ('CCN(CC)CCNc1ccc([N+](=O)[O-])c2nc3ccccc3c(N)c12', '%', -8),
  ('O=C(O)c1ccccc1/C=N/N=C1c2ccccc2-c2ccccc21', '%', 8),
  ('COc1cc(C2c3cc4c(cc3OC(OC(C)=O)C2C)OCO4)cc(OC)c1OC (stereo unspecified)', '%', 52);
